Test system: T-47D breast
Test: NCI-60 one-dose screen, 48 h (100 = growth as untreated, 0 = no growth, -100 = all killed)
Details: 10 µM unless noted
Compounds without any hit were thinned out: in the full panel of roughly 83,000, 20% have a hit.
Given measured growth, output fulfilled if it is greater than or equal to 80% and not fulfilled if not.

Molecule: CN(C)CCCNc1c2ccc(Cl)cc2nc2c1oc1ccc(Cl)cc12
Class name: fulfilled
//
Molecule: Cc1cc2nc3c4cc(Cl)ccc4n(CC(=S)NCCN(C)C)c3nc2cc1C
Class name: not fulfilled
//
Molecule: COc1ccc(C(=O)c2cc(C(=O)/C=C/c3c(Cl)cccc3Cl)c3cc(C)ccn23)cc1
Class name: fulfilled
//
Molecule: Cc1ccc2c(n1)C(=O)C(Cl)=C(Nc1cccc(C(C)C)c1)C2=O
Class name: not fulfilled
//
Molecule: CNC(=O)c1cc(-c2ccc(NC(=O)Nc3ccc(N4CCN(C)CC4)c(C(F)(F)F)c3)cc2)nc2cccnc12
Class name: not fulfilled
//
Molecule: Cc1cc(C(NC(=O)CCCCCNc2cccc3c2C(=O)N(C2CCC(=O)NC2=O)C3=O)c2cccnc2)c(O)c2ncccc12 (stereo not drawn)
Class name: not fulfilled
//
Molecule: COc1ccc(CNS(=O)(=O)/N=C2\NC(=O)NC2=C(Cl)Cl)cc1
Class name: not fulfilled
//
Molecule: N/C(=N\c1nc2c(Cl)cc(Cl)cc2s1)C(Cl)(Cl)Cl
Class name: not fulfilled
//
Molecule: CCN1CCN(S(=O)(=O)c2oc(-c3ccc(Cl)cc3)nc2C#N)CC1
Class name: not fulfilled
//
Molecule: OC1CCN(CCCOc2c3ccc(Cl)cc3nc3c2oc2ccc(Cl)cc23)CC1
Class name: not fulfilled
//
Molecule: COc1cc(OC)c(C2C(Cl)C(=O)N2Nc2ncnc3ccccc23)cc1OC (stereo not drawn)
Class name: fulfilled
//
Molecule: CC(=NNc1ncnc2ccccc12)c1ccc(S(C)(=O)=O)cc1
Class name: fulfilled
//
Molecule: CCOc1ccc([C@H]2C(C(=O)c3ccc(Cl)cc3)C3(N[C@@H]2c2ccccc2)C(=O)Nc2ccc(Br)cc23)cc1 (stereo partly drawn)
Class name: not fulfilled
//
Molecule: Cc1sc2c(c1C)c(=O)nc1c(-c3nc(-c4ccc(F)cc4)no3)n[nH]n12
Class name: fulfilled
//
Molecule: COc1ccc(-n2c(SCC(=O)Nc3ccc(-c4nc5ccccc5[nH]4)cc3)nc3ccccc3c2=O)cc1
Class name: not fulfilled
//
Molecule: O=C(CCN1C(=O)/C(=C/c2ccccc2)SC1=S)N1CCOCC1
Class name: not fulfilled
//
Molecule: COc1cc(N=Cc2sc(Nc3nccs3)nc2O)cc(OC)c1OC
Class name: fulfilled
//
Molecule: C#Cc1nc(C2=C(C)C(O)CC2)cs1 (stereo not drawn)
Class name: fulfilled
//
Molecule: O=C(Nc1nc2ccc(O)cc2s1)c1cccc(C(F)(F)F)c1
Class name: not fulfilled
//
Molecule: CC(=O)Oc1ccccc1C(=O)Nc1ccc(C(=O)/C=C/c2cccs2)cc1
Class name: fulfilled
//
Molecule: O=C1Nc2ccc(Cl)cc2/C1=C/c1ccc(OCC(=O)c2ccc(Br)cc2)cc1
Class name: fulfilled
//
Molecule: N[C@@H](Cc1cn(-c2ccnc3ccccc23)nn1)C(=O)O
Class name: fulfilled
